target: UniProtKB P49840; test: GSK3α in vitro kinase assay; details: recombinant human GSK3α, 100 μM ATP
Sequence (P49840 whole entry): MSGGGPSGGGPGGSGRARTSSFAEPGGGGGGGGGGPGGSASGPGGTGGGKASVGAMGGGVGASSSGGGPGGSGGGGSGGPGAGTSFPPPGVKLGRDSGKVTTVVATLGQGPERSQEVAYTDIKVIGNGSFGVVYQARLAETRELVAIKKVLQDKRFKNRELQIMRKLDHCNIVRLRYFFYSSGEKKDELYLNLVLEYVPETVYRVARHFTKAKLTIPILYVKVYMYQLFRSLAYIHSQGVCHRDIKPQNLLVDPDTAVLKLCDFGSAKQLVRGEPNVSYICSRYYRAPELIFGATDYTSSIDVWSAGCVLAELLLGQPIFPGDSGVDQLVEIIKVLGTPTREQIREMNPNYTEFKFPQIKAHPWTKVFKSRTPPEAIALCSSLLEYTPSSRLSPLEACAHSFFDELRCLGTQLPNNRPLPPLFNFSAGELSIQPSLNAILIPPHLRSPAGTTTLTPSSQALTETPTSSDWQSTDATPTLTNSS
pIC50: −log10 of the molar value.
ENDPOINT: pIC50

# annotated cases, reported pIC50 shown
COMPOUND STRUCTURE: CNc1cc(Nc2nccc(-c3sc(=O)n(C)c3C)n2)cc(C(F)(F)F)c1
pIC50: 7.38
--
COMPOUND STRUCTURE: Cc1c(-c2ccnc(Nc3ccc(Cl)c(C(F)(F)F)c3)n2)sc(=O)n1C
pIC50: 7.49
--
COMPOUND STRUCTURE: CC(=O)Nc1cc(Nc2nccc(-c3sc(=O)n(C)c3C)n2)cc(C(F)(F)F)c1
pIC50: 8.62
--
COMPOUND STRUCTURE: Cc1c(-c2ccnc(Nc3ccc(C#N)c(C(F)(F)F)c3)n2)sc(=O)n1C
pIC50: 8.44
--
COMPOUND STRUCTURE: COCCNS(=O)(=O)c1cccc(Nc2nccc(-c3sc(=O)n(C)c3C)n2)c1
pIC50: 7.75
--
COMPOUND STRUCTURE: CCNS(=O)(=O)c1cccc(Nc2nccc(-c3sc(=O)n(C)c3C)n2)c1
pIC50: 7.57

1: Cc1c(-c2ccnc(Nc3cccc(S(=O)(=O)NCCO)c3)n2)sc(=O)n1C
2: Cc1c(-c2ccnc(Nc3cc(Br)cc(C(F)(F)F)c3)n2)sc(=O)n1C
3: Cc1c(-c2ccnc(Nc3cccc(S(=O)(=O)NCc4ccccc4)c3)n2)sc(=O)n1C
// query With regard to pIC50, arrange the entries in ascending order, please. Write the labels, ordered according to the request.
// result 2, 3, 1
